method-summary: soluble fraction after stress (log2 fold change); higher = more stays soluble; pooled small domains, quantitative proteomics
condition-set: stress: pH 4
Response key: yes means soluble fraction (log2) >= -0.2; no means soluble fraction (log2) < -0.2.

Check out these entries, answers already filled in.
>>> classification("HMHKREKSFFETIYDDIPGIGKKRRVQLLSAYPTLDSLKSVTLEELKQIVPEESAKLILEKRDSR")
"yes"
>>> classification("HMKELLDRIFLHETMRRVSQDATITFSKKVYEVPQKFIGRQVTVQYDPEDLSRVYVKDLNFPEPVMVYPVQ")
"yes"
>>> classification("HMSVKLYPNPTRSVTTFATDVDKWYLYDNQGKLVSEGNTKTIDVTAFPVGIYFVKTIKGNNSTFVKLIV")
"yes"
>>> classification("HMEKEKIKEALIGYFEAEPEEKFTVQELADKLKMNKAGQFNFVVQAVAQLEHDKVITLDDEGNFSLVRHE")
"no"
>>> classification("HMELTDSLTENAKKLYSVLTTEPRHIDDLSEEAKLSSADTLAALTELELYSLVALSEGKHYYK")
"no"
>>> classification("HMNKNQIGTNAGIVWKLLSDNVHWEYDKLKHASGLSDRDLNAAIGWLAREDKIDFDIDEQHDRLFL")
"no"
>>> classification("HMYMTTADADMWKYVNTGRYNNDIQLMEEYKNRSMDSFEVITPEQQRKYNKAAMNLNSYYAWADPSYKPNP")
"no"
>>> classification("HMQVEYTRGELIQDLEGGKIVYAGISPSRETPTGEVNFILDSGLTRTLYVTDVSEIEQLLISYDIDPEVKK")
"no"
>>> classification("HMGVMNEYEELRDRYLTGQIWKIGDLVEAKGIEGKIIQRGTNYITFNDSQGKVHKAWLHEIKV")
"yes"
>>> classification("HMSHGYVEMQAKDDQVLLAALKNHPWFEKVSIDEETGLTKAILTQPIEAEELNSMLFEKGIVLSHLVKRK")
"no"

Incoming: Check the entry `HMQRQGTVATQQTPLNIRSQPSLSAQVIGQAPKGATVAILGESGDWYQIRYQNITGYSSKQYI` : does soluble fraction (log2) equal or exceed -0.2?
Outgoing: yes

Incoming: Check the entry `HMSDTVDITKLGIAGKTKEAAEALLKENGFSVESKEENSDTIEKGKVISYSPTKPKNGDRITLIVSSGKK` : does soluble fraction (log2) equal or exceed -0.2?
Outgoing: yes

Incoming: Check the entry `HMKLSLKTQVKEYLLSYIRDKKLQPGDRLLTQRELAEMLHTSQKVAQMALNSLEEEGIIIRRLGSGSFLAR` : does soluble fraction (log2) equal or exceed -0.2?
Outgoing: no

---

method-summary: soluble fraction after stress (log2 fold change); higher = more stays soluble; pooled small domains, quantitative proteomics
condition-set: stress: pH 4
Listed next: entries and their corresponding soluble fraction (log2).

A selection of reference data follows.
>>> result("HMKLTKPQEVFIQELLKGSSQYEAYLKAYPSKKTWKRNSIDTEASKLFKNAKIKQRYEELLYNIREE")
-0.175
>>> result("HMNADAIVGRTGVVTEAIAADGFGRVQIDGDSWKAKASGNNGIDVGAKVRVLRIDSIILTVEK")
0.059
>>> result("HMRQLISIYNNTIGADEIDQMRNILSNSGYKEGVDFAVQTADKKSVILVRRDLAGMIQEQLSGEGLPS")
-0.18

Per the records, this sequence ( `HMGEMTDFETLRDMYLTGQIWNIDDLIEANGVEGRIVRRGTNYIAFNDRDGKVHKAWLHEVTINE` ) has soluble fraction (log2) equal to -1.39

Per the records, this sequence ( `HMDGLIRLNKLLATLGVESRRHAEEMIIAGRITVDGVTATEKGQKVRRGAVIKVDGVEVGPPP` ) has soluble fraction (log2) equal to 0.0501

Per the records, this sequence ( `HMELSTQERIQILLEILNQREIISFSQTLRKKEGKKGVVVTFLASLELAKDGYVTLVQNKSDQIYLRSN` ) has soluble fraction (log2) equal to -0.428

Per the records, this sequence ( `HMRSAKEYKAIREEIYRFIGAYITKHVYAPSNKEIAEAVGISGTTVHRHLIDMIDEGILETD` ) has soluble fraction (log2) equal to -1.29

Per the records, this sequence ( `HMNREEFLSQLERLLYDIPAQEREEALEYYNGYFDDAGKEKEAEVIQELGSPGKVAAIIKADLSG` ) has soluble fraction (log2) equal to -0.605

Per the records, this sequence ( `HMDENILKTRIEDLDLSVRTIKALTGASIRTVSGLARKKESDLLEISGLGDKGIQEIKRALGSLGITL` ) has soluble fraction (log2) equal to -0.0429

Per the records, this sequence ( `HMRKMELTEAAEKLIEEPDVVSAYRNMQQIFQQWREIGPVPREQRDEVWSHFKDLMTQVNRRHQAHFEN` ) has soluble fraction (log2) equal to -0.258

Per the records, this sequence ( `HMKHFFIIAGGKIEDAFAIEVLKGFAEKTVIAADSGMEFLRRNEIVPQVIIGDFDSVSKETLEWFQKK` ) has soluble fraction (log2) equal to 0.22

Per the records, this sequence ( `HMDLGTHMRLIVPTGMRVDHIVYESNGKNISVDHDRSISVRWNGEVVSIDVSPLPSRPDFDVLIYMSPK` ) has soluble fraction (log2) equal to -0.162

---

Listed next: entries and their corresponding soluble fraction (log2).
method-summary: soluble fraction after stress (log2 fold change); higher = more stays soluble; pooled small domains, quantitative proteomics
condition-set: stress: pH 4
Respond with the number and no other words.

A selection of reference data follows.
>>> result("HMKDITMPNVYGLTLEMAEQTLKQSELSIFKAMKINSDTVEEGKVIYTDPKANSIVSGDQEITIYVSDGP")
0.22
>>> result("HMPDAGQRRYLELVTALAGARSLTIDDLERRAIRFAEWGNGYSGRTARQFIDTLLQDRGVAEEL")
-0.935
>>> result("HMESMIGSLRGRLLELFGDGEVLIEVGGVGYRVIVTPTTTVRLGDVGGDVFVHVHHHIREADQTLYGF")
-0.722
>>> result("HMPKLTKEEIQFIDNYLKNSGVEYIDTRAEVVDHVASEIESRLSANNTTNFYEEFKVYMVQHKETLLK")
-0.96
>>> result("HMVDALYGQGARVMRDFSEGSGIVKLDNGETWTGRLSPAASGASLYVGDRVIVTRIDGAIAEVTPP")
-0.446
>>> result("HMNDPFVILGVSKDASQSEILEAYKQKRAYYQERVFDEGDEGAQAARMLTQLDDAYQQAMELSHES")
0.17
>>> result("HMHYKLIIFENHTKSTSLDITPEQARQILGVTDYTPEQYEILAEITNRPASYFMDDLVDYYVD")
-1.53
>>> result("HMLLTLPEDIITMVRQGTLSAGHARVLAGLESDEMKMTLARQTITNEWSVRQLENAVALMRKS")
-0.858

For the next question, use this sequence.
Per the records, this sequence ( `HMVKIIHYEVYANRGDGWKLVDQFSADQRQEAVNLAKEIETEDQVAVKIIREIFDVQDNTYQESVEYIG` ) has soluble fraction (log2) equal to -0.804

---

Listed next: entries and their corresponding soluble fraction (log2).
method-summary: soluble fraction after stress (log2 fold change); higher = more stays soluble; pooled small domains, quantitative proteomics
condition-set: stress: pH 4
Respond with the number and no other words.

A selection of reference data follows.
>>> result("HMTVSKLKVINYTIRNGDSLWTISRKFNVTVDKVKEWNGLSDRTLLQPGQKLTLYVDPTIQISH")
-0.406
>>> result("HMQALTLVGQDAKDAKAALDAVDIQPAKTETDRYIYVLTEQQAQELGRTVDALYGVEGSLTLILEV")
-0.207
>>> result("HMQSTVSTHQKTLALDTAQSGIPVFPVSSTHKRPLTDHGYKDATADADAVRKIWQQFPSAFV")
0.22
>>> result("HMGDLDLVTFGQRLRHLRRSRNMTLSELGERVGRAPSQLSLLENGKREPKLSLLTALAKALDVSVEEL")
0.178

Per the records, this sequence ( `HMKSQVVAYSDFVKAVNQKQINEVQIQGDKIRAINKAGEEITVTWLQNDQKLMDDLLDNNVKTIFLE` ) has soluble fraction (log2) equal to -0.282

Per the records, this sequence ( `HMKQVNVVSVIGQSEANAKTTLTGLGLKVNVAYEEDTSKADGIVLKQSLEGGKTVNEGTTITITVNKIA` ) has soluble fraction (log2) equal to -0.567

Per the records, this sequence ( `HMQEIKPEPISDGRVWKEGMWATTPLGIEGQLLSDPDEKGMVQLGYGNMRININIQDLDPSR` ) has soluble fraction (log2) equal to -0.207

Per the records, this sequence ( `HMEFLDLEIDVDATDGRLLAFLAAKGEVVSQTFNDTIITVRVRMPTGAMGQVHRSALAIRPA` ) has soluble fraction (log2) equal to -1.43

Per the records, this sequence ( `HMTKDVIEIVDGNKFVFHKTIATDSVSSVINKYHISEADFRTWNELTGDMKVGEEYIVQLSLH` ) has soluble fraction (log2) equal to -0.576

Per the records, this sequence ( `HMDNQSIVRINDGDGAWRQRLGEHFGHLPRDRKRGEIVLQVDAADWRWLQTQGYAPRFDAALSAQLQTTL` ) has soluble fraction (log2) equal to -0.147

Per the records, this sequence ( `HMEALPELTDRQRQVYEFIEARIAEWGYPPTIREIGQHLGIKSTNGVADHLKALKRKGYLQQ` ) has soluble fraction (log2) equal to -0.804

Per the records, this sequence ( `HMGASLVIVPGAGFLRVSASSQTRLDVYSITGMRVRSVDFEPGTTEIELPAGFYIAGGRKFFV` ) has soluble fraction (log2) equal to -0.124
